targetEntity: HLA-A*0203 (human)
assay: competition with 125I probe peptide for purified HLA
Where no end group is shown, it is not given here. [ ]: non-standard residue; d: D form. Abu = CC[C@H](N)C(=O)O
propertyName: IC50
Kindly write the number and append the unit.

// worked examples, IC50 included
Given item AMBRWGLLV (B at position 3 = alpha-amino butyric acid) [Her2/neu.5M2B3V9 AMBRWGLLV] , the value recorded as its IC50 is 16 nM

Given item AV[Abu]RWGLLV [Her2/neu.5V2B3V9 AVBRWGLLV] , the value recorded as its IC50 is 141 nM

Given item ALCRWGLLLA [Her2/neu.5 (10-mer) ALCRWGLLLA] , the value recorded as its IC50 is 12 nM

Given item QLMPYGCLL [Her2/neu.799 QLMPYGCLL] , the value recorded as its IC50 is 114 nM

Proceeding to the next binder to report its IC50.
Given item QLFEDNYALA [Her2/neu.106 (10-mer) QLFEDNYALA] , the value recorded as its IC50 is 9.1 nM
